Known growth inhibition of a selection of molecules
experiment: NCI Yeast Anticancer Drug Screen. Data for the wt1 strain (AID 149);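 also: 0% = growth of vehicle-treated wt1 cultures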; conditions: S. cerevisiae wt1 strain (SPY 50644) growth inhibition; at 33.0 µM; active compounds read high
About 79,000 compounds went through this panel and 15% of them were active in at least one assay; those are over-represented in the sample as a whole.
Kindly provide the numeric value in % only, without the unit symbol.

Recorded growth inhibition, per entry:
O=Cc1coc2ccccc2c1=O ... 22
COC(=O)CSc1nnc(CSc2ccc(Cl)cc2)n1-c1ccccc1 ... 0
CC(=O)C1=C(C)O/C(=C/c2cccc(Cl)c2)C1=O ... -2

Query string: Supply growth inhibition value. Item: Cc1cc(Cl)nc2nc(Cl)c(N)cc12
Result string: 2

Query string: Report growth inhibition for O=C(/C=C\c1ccc([N+](=O)[O-])o1)Nc1ccc(Cl)cc1
Result string: 98

Query string: Report growth inhibition for CC1=CC2C(C(C)C)CC1C1C(=O)OC(=O)C21 (stereo unspecified)
Result string: 13
